System: MS2 coat protein
Assay: apparent Kd, MS2 coat protein; higher = weaker binding; RNA-MaP array; theophylline 2 mM where present
Conditions: designed as: ON switch for theophylline; no ligand
Parameter measured: apparent Kd
Lab note: write values as number then unit, every time.

Quick one: give me apparent Kd for each item below, same order please.
1. ACACAUGAGGAUCACCCAUGUUCAAUAGAUACCAGUGAUACGGUGCACCCUUGGCAGCUGUUGCUGAGUGAUGGUUCCCUCGGAA
2. GCACUACAUGAGGAUCACCCAUGUGCAGAUACCAGAGGUGUAUGCCUCCCUUGGCAGCUGAGUAGGUCUGGAGGGCUAUUGGUUU
3. GCACCAGGUACGGAUACCAGCUAUAGGCCCAAUGGGCGACAUGAGGAUCACCCAUGUAAUGGCCCUUGGCAGCUGUACCUGGUGC
4. UUUACAUGAGGAUCACCCAUGUUCCAUGAUACCAGACAUGAAAAUGUCCCUUGGCAGCAUGAAUGAUUCAUAGGAUAAUUAUGGG

55.2 nM
17.6 nM
88.3 nM
98.7 nM
